tgt: JAK1 (Homo sapiens (Human))
Sequence (P23458 875-1153): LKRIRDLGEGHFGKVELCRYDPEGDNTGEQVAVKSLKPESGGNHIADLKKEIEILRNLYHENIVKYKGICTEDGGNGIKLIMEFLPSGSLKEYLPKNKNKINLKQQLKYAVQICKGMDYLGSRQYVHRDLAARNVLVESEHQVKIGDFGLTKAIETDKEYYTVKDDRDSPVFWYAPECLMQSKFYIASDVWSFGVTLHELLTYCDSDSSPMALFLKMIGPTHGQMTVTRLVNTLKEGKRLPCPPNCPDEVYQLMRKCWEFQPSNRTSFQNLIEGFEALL
methodNotes: Jak Biochemical HTRF Assay, JAK1
measurementParameters: HTRF biochemical assay, GST-tagged catalytic domain; top concentration tested […]; read-out: JAK1 IC50
measuredAttribute: IC50 (nM)

Solved cases (3 shown):
INSERT INTO results (molecule, assayvalue) VALUES
  ('Cc1ccc(C)c(NC(=O)N2CC(CC#N)(n3cc(C(N)=O)c(Nc4ccccc4)n3)C2)c1', 7),
  ('N#CCC1(n2cc(C(N)=O)c(Nc3ccccc3)n2)CCN(C(=O)OC2Cc3ccccc3C2)CC1', 3),
  ('N#CCC1(n2cc(C(N)=O)c(Nc3ccccc3)n2)CN(C(=O)Nc2ccc(F)cc2F)C1', 6);

(1) N#CCC1(n2cc(C(N)=O)c(Nc3cncc(F)c3)n2)CCN(C(=O)CC(F)(F)F)CC1
(2) N#CCC1(n2cc(C(N)=O)c(Nc3ccnc(F)c3)n2)CCN(Cc2cccc(C#N)c2)CC1
(3) N#CCC1(n2cc(C(N)=O)c(Nc3ccnc(F)c3)n2)CCN(C(=O)C2CC(F)(F)C2)CC1
Query: Descending sort on IC50 required. Respond with the label ranking, as requested.
Result: 1, 2, 3
(1: 3 nM, 2: 0.9 nM, 3: 0.3 nM)

Values were extracted from patent US9328099B2.
